Record form. Attribute: IC50. Fill in for each entry.
# assayed_system: p97 (Homo sapiens)
# Sequence (P55072 2-806 limits assumed): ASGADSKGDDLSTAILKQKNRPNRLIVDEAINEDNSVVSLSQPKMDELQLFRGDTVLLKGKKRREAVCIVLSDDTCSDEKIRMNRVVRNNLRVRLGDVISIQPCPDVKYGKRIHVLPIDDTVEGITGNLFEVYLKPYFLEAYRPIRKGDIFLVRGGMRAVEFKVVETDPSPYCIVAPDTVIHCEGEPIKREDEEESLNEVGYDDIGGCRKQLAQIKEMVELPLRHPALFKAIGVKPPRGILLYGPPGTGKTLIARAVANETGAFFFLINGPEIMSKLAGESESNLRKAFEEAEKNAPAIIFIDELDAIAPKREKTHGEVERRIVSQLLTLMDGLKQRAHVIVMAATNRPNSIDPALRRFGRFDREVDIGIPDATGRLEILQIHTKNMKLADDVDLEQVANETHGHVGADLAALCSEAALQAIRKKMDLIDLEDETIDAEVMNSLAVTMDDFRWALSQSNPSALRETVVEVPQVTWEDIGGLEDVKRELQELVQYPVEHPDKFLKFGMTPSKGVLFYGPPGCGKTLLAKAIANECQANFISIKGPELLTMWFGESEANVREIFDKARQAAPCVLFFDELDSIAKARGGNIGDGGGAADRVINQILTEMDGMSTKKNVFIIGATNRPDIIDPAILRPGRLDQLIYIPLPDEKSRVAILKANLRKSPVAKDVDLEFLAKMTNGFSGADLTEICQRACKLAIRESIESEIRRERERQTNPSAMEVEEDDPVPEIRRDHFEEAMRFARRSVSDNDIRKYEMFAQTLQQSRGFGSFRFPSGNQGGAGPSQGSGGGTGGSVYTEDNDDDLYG
# measurement_protocol: p97 ATPase assay (Kinase Glo Plus; biomol green for compounds that interfere with luciferase)
# Format: biochemical
# test_parameters: p97 ATPase assay
# Experimental: Assay Buffer (20 μL of 2.5× concentration, where 1×=50 mM Tris pH 7.4, 20 mM MgCl2, 1 mM EDTA, 0.5 mM TCEP) was dispensed into each well of a 96 well plate. […] Luminescence was read on an Analyst AD (Molecular Devices). […] The percent of remaining activity for each reaction was calculated using the following mathematical expression: ((Test Compound-High Control)/(Low Control-High Control))*100. […] The result was expressed as mean +/− standard error. […]
Just the number in µM, nothing appended.

What IC50 value was documented for this compound, COc1cccc2c(NCc3ccccc3)nc(-n3c(N)nc4cc(C)c(C)cc43)nc12 [XXI-1] ?
2

Consider next the compound CN1CCN(c2nc(NCc3ccccc3)c3ccccc3n2)CC1 [XLV] in the same way.
53

Consider next the compound COc1cccc2c(NCc3ccccc3)nc(NC(=O)N(C)C)nc12 [XI-7] in the same way.
60

Consider next the compound CN(Cc1ccccc1)c1nc(-c2ccccc2F)nc2ccccc12 [Cpd I-26] in the same way.
25

Consider next the compound FC(F)(F)c1cccc(Nc2nc(NCc3ccccc3)c3ccccc3n2)c1 [II-20] in the same way.
50

Consider next the compound CN(Cc1ccccc1)c1nc(-c2ccccc2[N+](=O)[O-])nc2ccccc12 [Cpd I-27] in the same way.
25

Consider next the compound Clc1cccc(CNc2nc(-c3ccccc3)nc3ccccc23)c1 [Cpd I-12] in the same way.
28
